Please respond with reported normalized growth for every item in the list.
- PROTOCOL: chemical genetic growth profiling, strain panel (AID 1159580);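 note: tested at 20 µM; growth read once vehicle control cultures reached saturation at 30 °C; 1 = growth at the plate median or of vehicle wells; lower values mean less growth of the strain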
- COND: S. cerevisiae deletion strains, growth OD, locus YPL240C, strain hsp82, hits give low values
The campaign covered roughly 5,500 compounds. About 2,000 (36%) were called active. Another 18% or so got no clear call; they are omitted. This is one part of the list.
Provide a numeric answer; units are not to be included.

Exercise: Requested field: normalized growth. Item: "CC(=O)/C(=C\c1ccccc1)CC(=O)O"
Solution: 0.987

Exercise: Item under review: CC1(C)CCCC2(C)C3C1[C@@H](O)C2(C)C[C@H]3O (some centres undefined) . Reported normalized growth?
Solution: 0.987

Exercise: Entry "Cc1ccc2c(Cl)cc(Cl)c(O)c2n1" has what normalized growth?
Solution: 1.01

Exercise: // returns reported normalized growth for input "O=C(O)CF"
Solution: 1.02

----------
- PROTOCOL: chemical genetic growth profiling, strain panel (AID 1159580);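 note: tested at 20 µM; growth read once vehicle control cultures reached saturation at 30 °C; 1 = growth at the plate median or of vehicle wells; lower values mean less growth of the strain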
- COND: S. cerevisiae deletion strains, growth OD, locus YFL009W, strain cdc4
The campaign covered roughly 5,500 compounds. About 2,000 (36%) were called active. About 18% were inconclusive and are not listed. No stated cut-off is given here; in the data, active means normalized growth mostly below about 0.91 (no sharp cut-off); inconclusive means no clear call, values can overlap the other calls; inactive means mostly above about 0.92. The list shows a part of the results.
Pick one and only one: Y (active), N (inactive)

Exercise: # lookup: test call for "O=[N+]([O-])/C=C/c1ccc(F)cc1"
Solution: Y

Exercise: Test call for this compound, please: "CCOC(=O)/C(=N/Nc1c(Cl)cccc1Cl)c1csc(N)n1"
Solution: N

Exercise: Hi team, can someone confirm the assay call for "O=c1c(Cl)c(-n2cccn2)cnn1-c1ccc(Cl)cc1Cl" ?
Solution: N

----------
- PROTOCOL: chemical genetic growth profiling, strain panel (AID 1159580);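 note: tested at 20 µM; growth read once vehicle control cultures reached saturation at 30 °C; 1 = growth at the plate median or of vehicle wells; lower values mean less growth of the strain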
- COND: S. cerevisiae deletion strains, growth OD, locus YKR001C, strain vps1
Screen size: about 5,500 compounds; about 2,000 (36%) were called active. Another 18% or so got no clear call; they are omitted. No stated cut-off is given here; in the data, active means normalized growth mostly below about 0.91 (no sharp cut-off); inconclusive means no clear call, values can overlap the other calls; inactive means mostly above about 0.92. The list shows a part of the results.
# output must be one of T for active, F for inactive

Exercise: Please state the recorded outcome for this molecule: "COc1cc2c(c(OC)c1OC)-c1ccc(OC)c(=O)cc1[C@@H](NC(C)=O)CC2"
Solution: F

Exercise: # lookup: test call for "COC(C)(C)CCC[C@H](C)C/C=C/C(C)=C/C(=O)OC(C)C"
Solution: F

Exercise: GET /call?item= "CCCCC1=NC2(CCCC2)C(=O)N1Cc1ccc(-c2ccccc2-c2nn[nH]n2)cc1" returns the recorded outcome of this test.
Solution: F

Exercise: For this molecule, state the assay outcome: "Nc1ncnc2c1ncn2[C@@H]1O[C@H](CO)[C@@H](O)[C@H]1O"
Solution: F

Exercise: For "C=C(CC)C(=O)c1ccc(OCC(=O)O)c(Cl)c1Cl" , what call appears in the results of this test?
Solution: F

Exercise: Could you check what this test reported for CCCC1O[C@@H]2CC3C4CCC5=CC(=O)C=CC5(C)C4[C@@H](O)CC3(C)[C@]2(C(=O)CO)O1 (some centres not stated) ?
Solution: F

Exercise: Query: recorded result category for Nc1ncnc2c1ncn2C1O[C@H](COP(=O)(O)O)[C@@H](O)[C@H]1O (some centres not stated) in this test
Solution: T

Exercise: Which outcome did this test record for the molecule "COc1cc2c(c(OC)c1OC)-c1ccc(O)c(=O)cc1[C@@H](NC(C)=O)CC2" ?
Solution: T

Exercise: Which outcome was assigned to "CCCCC1(COC(=O)CCC(=O)O)C(=O)N(c2ccccc2)N(c2ccccc2)C1=O" in this test?
Solution: F

Exercise: Write down the call the test reported for this molecule. Item: "O=C(O[C@@H]1Cc2c(O)cc(O)cc2O[C@@H]1c1cc(O)c(O)c(O)c1-c1c([C@H]2Oc3cc(O)cc(O)c3C[C@H]2O)cc(O)c(O)c1O)c1cc(O)c(O)c(O)c1"
Solution: T

Exercise: Kindly provide the recorded test outcome for the following molecule: Nc1ncnc2c1ncn2C1C[C@H](O)[C@@H](CO)O1 (some centres not stated)
Solution: F

Exercise: How was "Oc1ccc(Cl)c2cccnc12" classified in this test?
Solution: T
